This collection of values is drawn from ChEMBL document CHEMBL1156834.

# measurementTarget: Antigen-presenting glycoprotein CD1d (Homo sapiens) (UniProt P15813)
# Sequence (P15813 whole entry): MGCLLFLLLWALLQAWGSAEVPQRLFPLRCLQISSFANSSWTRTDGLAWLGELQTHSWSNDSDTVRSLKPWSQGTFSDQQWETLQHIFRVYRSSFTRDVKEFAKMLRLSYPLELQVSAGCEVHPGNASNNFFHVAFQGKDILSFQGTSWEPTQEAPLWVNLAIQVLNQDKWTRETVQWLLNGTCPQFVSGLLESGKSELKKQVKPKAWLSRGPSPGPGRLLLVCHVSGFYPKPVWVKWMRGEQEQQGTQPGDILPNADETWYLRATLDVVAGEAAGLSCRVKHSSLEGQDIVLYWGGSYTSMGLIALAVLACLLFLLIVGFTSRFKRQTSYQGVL
# assay: Induction of CD1D-mediated IL-13 production in human iNKT cells expressing CD4 at 400 nM after 18 hrs by ELISA
# Format: cell-based
The source made the active and inactive calls. The rule behind the calls is not given here.
quantityMeasured: Activity

CCCCCCCCCCCCCCCCCCCCCCCCCC(=O)N[C@H](CCCCCCCCCCCCCCCC)CO[C@H]1O[C@H](CO)[C@H](O)[C@H](O)[C@H]1O ... Active
CCCCCCCCCCCCCCCCCCCCCCCCCC(=O)N[C@@H](CO[C@H]1O[C@H](CO)[C@H](O)[C@H](O)[C@H]1O)[C@@H](O)CCCCCCCCCCCCCCC ... Active
CCCCCCCCCCCCCCCCCCCCCCCCCC(=O)N[C@@H](CO[C@H]1O[C@H](CO)[C@H](O)[C@H](O)[C@H]1O)[C@H](O)[C@H](O)CCCCCCCCCCCCCC ... Active
